- targetOfAssay: purified human HDAC6 (Homo sapiens, UniProt Q9UBN7)
- Construct: purchased BPS Bioscience 5006
- Sequence (Q9UBN7 whole entry): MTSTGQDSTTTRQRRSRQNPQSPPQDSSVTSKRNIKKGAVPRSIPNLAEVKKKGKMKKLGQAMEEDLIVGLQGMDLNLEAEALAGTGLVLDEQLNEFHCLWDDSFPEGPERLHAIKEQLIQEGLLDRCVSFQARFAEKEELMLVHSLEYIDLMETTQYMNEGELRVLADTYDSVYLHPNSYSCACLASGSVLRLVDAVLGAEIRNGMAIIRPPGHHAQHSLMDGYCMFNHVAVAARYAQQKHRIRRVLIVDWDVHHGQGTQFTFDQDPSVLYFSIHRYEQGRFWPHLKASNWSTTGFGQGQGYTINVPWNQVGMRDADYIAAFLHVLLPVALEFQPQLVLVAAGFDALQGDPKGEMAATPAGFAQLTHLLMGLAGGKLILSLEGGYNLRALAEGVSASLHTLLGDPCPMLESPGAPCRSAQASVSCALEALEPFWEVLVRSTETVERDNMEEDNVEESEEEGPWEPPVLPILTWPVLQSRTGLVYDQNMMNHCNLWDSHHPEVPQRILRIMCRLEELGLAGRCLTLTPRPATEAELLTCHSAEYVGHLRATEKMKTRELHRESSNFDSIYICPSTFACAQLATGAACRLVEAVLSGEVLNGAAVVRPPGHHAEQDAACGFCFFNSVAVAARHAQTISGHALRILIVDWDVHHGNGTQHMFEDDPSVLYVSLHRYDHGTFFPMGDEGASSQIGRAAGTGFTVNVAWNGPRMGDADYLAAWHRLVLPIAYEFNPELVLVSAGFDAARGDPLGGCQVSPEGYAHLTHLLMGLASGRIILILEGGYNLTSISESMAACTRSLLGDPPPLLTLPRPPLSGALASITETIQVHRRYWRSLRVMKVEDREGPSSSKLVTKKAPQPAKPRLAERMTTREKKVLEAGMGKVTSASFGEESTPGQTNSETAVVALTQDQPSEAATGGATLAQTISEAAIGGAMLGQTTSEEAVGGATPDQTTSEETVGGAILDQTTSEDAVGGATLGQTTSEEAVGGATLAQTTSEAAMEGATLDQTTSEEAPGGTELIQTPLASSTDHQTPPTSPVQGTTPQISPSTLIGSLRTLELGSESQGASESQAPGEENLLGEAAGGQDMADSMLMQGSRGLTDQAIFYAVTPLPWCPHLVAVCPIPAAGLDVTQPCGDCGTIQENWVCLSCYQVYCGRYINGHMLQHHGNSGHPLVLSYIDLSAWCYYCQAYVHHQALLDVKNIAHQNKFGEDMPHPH
- measurementProtocol: HDAC6 Enzyme Assay
- Type: biochemical
- details: compound concentration 0.37 μM, read-out: Percent Inhibition
measuredAttribute: inhibition at 0.37 µM (%)

O=C(NO)c1ccc2ncn(Cc3cccc(-c4ccc(F)cc4)c3)c(=O)c2c1 [Compound I-181]	92.7

(P) O=C(NO)c1ccc2c(=O)n(Cc3ccc(C(F)(F)F)cc3)c(-c3cnc(N4CCOCC4)s3)nc2c1 [Compound I-237]
(Q) CC(C)NCCn1cnc2ccc(C(=O)NO)cc2c1=O [Compound I-294]
Asked: Between P and Q , whose recorded inhibition at 0.37 µM is greater? Could you answer with the label of the item you picked?
Given back: P
(P: 88%, Q: 56%)
